These measurements were taken from the supplement of paper PMC9732359.

protocol-notes: protein stability index of a GFP-peptide fusion (yeast GPS) (PSI 1-4); higher = more stable; sorted into four equal gates, so the index is relative within each strain
test-settings: doa10∆
observation-type: protein stability index
Would you mind answering with just the numeric figure?

Reference set (4 entries):
sequence-record | protein stability index
TAEINCFMHLLVQLFLW [RPN3] | 1.77
GLALQLFKKLKEENDEG [RPN2] | 3.27
ILKDLIYRGVLNDENSD [SMC1] | 1.81
QQQQAAALANANNNINS [SWI1] | 2.51

The sequence listed as IVKRLYEYGAVSVLLIS [BRR2] has a reported protein stability index of 2.57

Kindly note the recorded protein stability index for VKKASGEIVSINQINEA [RPL20A] , which is 2.89

GET /value?item= LIETVFVKNIRMLSFED [RPN9] &field=protein stability index returns 2.19

Looking up AGLEITSDNLLTITKAA [RPP1B] , I see its protein stability index listed as 2.42

Recorded protein stability index (sequence LGNTVSTQPSFAWSKPS [YGR119C/NUP57] ): 2.62

Notebook: DTVDRLIIKYQKYWESM [GAL11] , protein stability index read as 2.73

Consider PGTTSTGNNNNIATQQN [GAL11] . Its measured protein stability index is 2.03

For record NQINSFWSLHSSTYYNL [NUT1] the listed protein stability index is 2.34

The sequence listed as ARKELPIFDYIHIDALE [SIR3] has a reported protein stability index of 2.3

* * *

protocol-notes: protein stability index of a GFP-peptide fusion (yeast GPS) (PSI 1-4); higher = more stable; sorted into four equal gates, so the index is relative within each strain
test-settings: ubr1∆
Outcome: MET for protein stability index of at least 3; NOT MET for anything lower.

Some entries whose results are on file:
sequence-record | class-label
AISQSLRDESLTVDNLS [PRE5] | MET
WIKFDQELYNELCKKNE [RPN7] | MET
QNDELTMGMRALLKLSV [DIS3] | NOT MET
SNININVNNNNIGQQQV [SWI1] | MET

[in] In plain terms: is recorded protein stability index at least 3 for LLDVKLAIDNMYILGMC [YCG1] ?
[out] NOT MET

[in] For this sequence, is measured protein stability index 3 or higher? LTADARSMIEHARTAAV [PUP2]
[out] NOT MET

[in] # bool: protein stability index of KKEANLFPEQQTKEIKT [RPL6B] >= 3
[out] MET

[in] Check this sequence for protein stability index at or above 3: GEAEAEKEEEEAKEESD [RPP1A]
[out] MET

[in] Answer whether protein stability index of GLALQLFKKLKEENDEG [RPN2] is greater than or equal to 3.
[out] MET

[in] # check: protein stability index of FATTKAECISLICSIGL [ECM29] is greater than or equal to 3
[out] NOT MET

[in] Can ANVELTPSNIRSLCEVL [RPC34] be said to have protein stability index at or above 3?
[out] NOT MET

[in] hey, is protein stability index for this one >= 3? SQAFDIVAALPISEKGL [RPP1]
[out] NOT MET

[in] Record AGKSLVSKSEPKFFLGE [QCR2] ; criterion: protein stability index no lower than 3. Met?
[out] MET

* * *

protocol-notes: protein stability index of a GFP-peptide fusion (yeast GPS) (PSI 1-4); higher = more stable; sorted into four equal gates, so the index is relative within each strain
test-settings: ubr1∆
observation-type: protein stability index
Enter the number alone.

Use these answered entries as a reference point.
sequence-record | recorded-value
MKVFVTKHLMPQDLTFN [RPB7] | 2.94
RNLNNLKQENAYLLIRR [RPB8] | 3
RALRIETGNFSWASEGI [RPS8A] | 3.05
EMKIGSIESKLEEHKNH [SMC1] | 3.01

Kindly review the next sequence as well.
Record summary for IRSVALNDSNVKSFKPH [RRP42] : reported protein stability index = 2.98

* * *

protocol-notes: protein stability index of a GFP-peptide fusion (yeast GPS) (PSI 1-4); higher = more stable; sorted into four equal gates, so the index is relative within each strain
test-settings: doa10∆
Returns one of 1 or 0; 1 when protein stability index is >= 2.

Worked cases, answers included:
sequence-record | class-label
MDFGVDPSMDPELAMAL [RPN10] | 1
EVVEAVTVVDTPPVVVV [RPL3] | 0

[in] Is it the case that KQREIVKAFLSIFEDAI [NUT1] has protein stability index reaching or exceeding 2?
[out] 0

[in] Quick check, protein stability index >= 2? KKACIIFFDEIDAVGGA [RPT1]
[out] 1

[in] Hello, I need to know if NNGNNSTSIQYHGISKN [POP6] has measured protein stability index not below 2. Thanks!
[out] 1

[in] Entry EARLPSQVVWIRRLRVL [RPL19A] : is its protein stability index no less than 2?
[out] 0

[in] I'd appreciate it if you could say whether KERYTVEDELTESIALS [RRI1] has protein stability index at least equal to 2.
[out] 1

[in] Decide: protein stability index of TDTSTTATAATNGNNAG [MED6] >= 2?
[out] 1

* * *

protocol-notes: protein stability index of a GFP-peptide fusion (yeast GPS) (PSI 1-4); higher = more stable; sorted into four equal gates, so the index is relative within each strain
test-settings: san1∆
observation-type: protein stability index
Enter the number alone.

Example cases with answers are listed next.
sequence-record | recorded-value
NFTCNRKILNFKKDLVI [SWI1] | 2.46
SAAKASQSRSAKAGLTF [HTA1] | 2.98
ELEGSFNKSAELSRIEN [YCS4] | 3.12
SYELIKEECQIEDDGII [CSN9] | 3.06
NEWIKAQEDVPYLLPYI [QCR7] | 2.6

Lab book: protein stability index of EVQCTSTPYLEILVEES [PCI8] noted as 2.33

The value of protein stability index measured for the sequence IESIRSCKDSQLKWAQN [YIL149C/MLP2] turned out to be 2.75

Just so you know, measured protein stability index for FITFSLDDWISIGYETE [IRR1] came out at 2.65

For this sequence ( ISPDPNLSIDEVAVPDR [RPO31] ), measured protein stability index is 3.23

sequence AQSRNVEIEKRILKLGT [YGR119C/NUP57] , protein stability index observed: 3.33

* * *

The following sequences are listed with their measured protein stability index values.
protocol-notes: protein stability index of a GFP-peptide fusion (yeast GPS) (PSI 1-4); higher = more stable; sorted into four equal gates, so the index is relative within each strain
test-settings: pdr5∆
Field format: numeric only.

sequence-record | observation-type | recorded-value
PHHNQSPRNTYQCAMGK [RET1] | protein stability index | 2.97

protein stability index reading for KEDTVSWFKQKYDADVL [RPL11A] : 1.43

* * *

Reported protein stability index values follow for various sequences
protocol-notes: protein stability index of a GFP-peptide fusion (yeast GPS) (PSI 1-4); higher = more stable; sorted into four equal gates, so the index is relative within each strain
test-settings: ubr1∆
Lab note: record just the number, no unit beside it.

sequence-record | observation-type | recorded-value
QTQREKAPLQPNSERET [IRR1] | protein stability index | 3.07
IESIRSCKDSQLKWAQN [YIL149C/MLP2] | protein stability index | 2.95

Recorded protein stability index (sequence AEQFKHQHGDKVDIFEI [FAS2] ): 3.06

Item: HLGCVPIGEAGDFGGWF [RIP1] | protein stability index: 3.06

Field protein stability index (entry FLLRRVKADVEKSLLPK [ISW2] ) reads 2.94

Entry under test: AIVLPMKRADKFKDMGI [RPT5] . Its protein stability index was 3.09

Field protein stability index (entry VFMLDTKRLGTPESVKP [RGR1] ) reads 2.8

protein stability index measured on EMINEQKLPQYIIQGSN [RGR1] = 3.15

Lab note: ESKLSLETLFNRWHSES [FAS2] gave protein stability index of 3.11

Item: ARSIDVEKGVNPTKSKE [ECM29] | protein stability index: 3.2

The sequence IEDVTPVPSDSTRKKGG [RPS14B] showed protein stability index equal to 3.03

Entry KRCMDDLNPLKTLNLFK [RPO31] , protein stability index reported as 2.92

// sample TLVNKSTGLKSASDALK [RPS1A] , its protein stability index was 3.23

Notebook: NIDYQKGLLIWRLLFID [GRR1] , protein stability index read as 1.45

Record summary for VRAEELNISGEFFRNKL [RPL16A] : reported protein stability index = 3.36

* * *

protocol-notes: protein stability index of a GFP-peptide fusion (yeast GPS) (PSI 1-4); higher = more stable; sorted into four equal gates, so the index is relative within each strain
test-settings: ubr1∆
Categories are assigned from the measured protein stability index using these intervals: range A: < 2; range B: ≥ 2 and < 3; range C: ≥ 3

sequence-record | class-label
NKLTGKQIVFEIPSQTN [RPS7B] | range B
VTNALDNIDEKVVKAIR [NUT1] | range A

[in] Class for SKSLQESGDTQEEDEEE [RPC82] ?
[out] range C

[in] Looking at IFLKRKDFTNKNLIQLI [SRB8] , which class would you pick?
[out] range A

[in] Could you tell me which band PIVIIFRALGIIPDGEI [RPB2] belongs to?
[out] range B
